Reported values of CC50 for individual entries
- assay: Cytotoxicity against human MT4 cells assessed as cell viability by MTT assay
- Assay type: cell-based
metric.name: CC50

>>> print(df.to_string())
                                    compound     result
 0  Cc1cc(C)cc(S(=O)(=O)c2c(C(=O)NCc3ccc(Cl)cc3)[nH]c3ccc(Cl)cc23)c1  > 51.3 µM
 1  Cc1cc(C)cc(S(=O)(=O)c2c(C(=O)NCc3ccc(N)cc3)[nH]c3ccc(Cl)cc23)c1    6.37 µM
 2  Cc1cccc(CCNC(=O)c2[nH]c3ccc(Cl)cc3c2S(=O)(=O)c2cc(C)cc(C)c2)c1    > 52 µM
 3  Cc1ccc(CNC(=O)c2[nH]c3ccc(Cl)cc3c2S(=O)(=O)c2cc(C)cc(C)c2)cc1    21.2 µM
 4  Cc1cc(C)cc(S(=O)(=O)c2c(C(=O)NCCc3cccc(Cl)c3)[nH]c3ccc(Cl)cc23)c1    29.1 µM
 5  O=C1Nc2ccc(Cl)cc2[C@@](C#CC2CC2)(C(F)(F)F)O1  > 15.8 µM
 6  Cc1cc(C)cc(S(=O)(=O)c2c(C(=O)NCCc3ccc(Cl)cc3)[nH]c3ccc(Cl)cc23)c1    32.4 µM
 7  Cc1cc(C)cc(S(=O)(=O)c2c(C(=O)NCc3ccc([N+](=O)[O-])cc3)[nH]c3ccc(Cl)cc23)c1  > 50.2 µM
 8  Cc1cc(C)cc(S(=O)(=O)c2c(C(=O)NCc3ccccc3[N+](=O)[O-])[nH]c3ccc(Cl)cc23)c1  > 50.2 µM
 9  Cc1cn([C@H]2C[C@H](N=[N+]=[N-])[C@@H](CO)O2)c(=O)[nH]c1=O  > 30.6 µM
10  Cc1cc(C)cc(S(=O)(=O)c2c(C(=O)NCC(C)c3ccccc3)[nH]c3ccc(Cl)cc23)c1 (racemic)    19.9 µM
11  Cc1cc(C)cc(S(=O)(=O)c2c(C(=O)NCCc3ccccc3C)[nH]c3ccc(Cl)cc23)c1    > 52 µM
12  Cc1cc(C)cc(S(=O)(=O)c2c(C(=O)NCc3cccc(F)c3)[nH]c3ccc(Cl)cc23)c1  > 53.1 µM

----------
- assay: Selectivity index, ratio of CC50 for human MT4 cells to EC50 for HIV1 NL4.3 infected in human MT4 cells
- Assay type: toxicity, cell-based
- settings: read-out: Ratio CC50/EC50
metric.name: selectivity ratio

>>> df
                                    compound    result
 0  Cc1cc(C)cc(S(=O)(=O)c2c(C(=O)NC(C)c3ccccc3)[nH]c3ccc(Cl)cc23)c1 (racemic)  > 206000
 1  Cc1cc(C)cc(S(=O)(=O)c2c(C(=O)NCCc3ccc(Cl)cc3)[nH]c3ccc(Cl)cc23)c1       602
 2  Cc1cc(C)cc(S(=O)(=O)c2c(C(=O)NCCc3cccc(Cl)c3)[nH]c3ccc(Cl)cc23)c1      7270
 3  Cc1cc(C)cc(S(=O)(=O)c2c(C(=O)NCc3ccc(Cl)cc3)[nH]c3ccc(Cl)cc23)c1    > 6260
 4  Cc1ccc(CNC(=O)c2[nH]c3ccc(Cl)cc3c2S(=O)(=O)c2cc(C)cc(C)c2)cc1     10100
 5  Cc1cc(C)cc(CNC(=O)c2[nH]c3ccc(Cl)cc3c2S(=O)(=O)c2cc(C)cc(C)c2)c1   > 12400
 6  Cc1cc(C)cc(S(=O)(=O)c2c(C(=O)NCc3ccc(F)cc3)[nH]c3ccc(Cl)cc23)c1   > 48300
 7  Cc1cc(C)cc(S(=O)(=O)c2c(C(=O)NCc3ccccc3[N+](=O)[O-])[nH]c3ccc(Cl)cc23)c1   > 62800
 8  Cc1cc(C)cc(S(=O)(=O)c2c(C(=O)NCc3ccc(N(C)C)cc3)[nH]c3ccc(Cl)cc23)c1      3360
 9  Cc1cn([C@H]2C[C@H](N=[N+]=[N-])[C@@H](CO)O2)c(=O)[nH]c1=O    > 8270
10  Cc1cc(C)cc(S(=O)(=O)c2c(C(=O)NCc3ccccc3F)[nH]c3ccc(Cl)cc23)c1   > 78100
